Measured GI50 accompanies every entry in the list below.
system: MDA-N; experiment: In vitro growth inhibition of MDA-N breast cancer cell line.; assay type: functional; settings: Homo sapiens

chemical-string	assayed-system	GI50
Cc1ccc2c(O)cc(-c3cc(C)sc3C)nc2n1	MDA-N	631 nM
Cc1ccc2c(O)cc(-c3cc4ccccc4s3)nc2n1	MDA-N	> 100000 nM
Cc1ccc2c(O)cc(-c3sc(-c4ccccc4)cc3C)nc2n1	MDA-N	3890 nM
Cc1ccc2c(O)cc(-c3cccs3)nc2n1	MDA-N	1860 nM
Cc1cnc2nc(-c3sccc3C)cc(O)c2c1	MDA-N	676 nM
Cc1ccc2c(O)cc(-c3sc4ccccc4c3C)nc2n1	MDA-N	17000 nM
Cc1ccc2c(O)cc(-c3sccc3C)nc2n1	MDA-N	77.6 nM
Cc1ccc2c(O)cc(-c3ccc(C)s3)nc2n1	MDA-N	22.9 nM
Cc1ccc2c(O)cc(-c3ccc(Cl)s3)nc2n1	MDA-N	186 nM
Cc1ccc2c(O)cc(-c3csc4ccccc34)nc2n1	MDA-N	< 10 nM
Cc1ccc2c(O)cc(-c3ccsc3)nc2n1	MDA-N	363 nM

----------
system: KB; experiment: In vitro cytotoxicity against KB-Vin cancer cell line.; type: functional; conditions: Homo sapiens, read-out: ED50 (the source's name)
pEC50: −log10 of the molar value.

chemical-string	assayed-system	pEC50
Cc1cnc2nc(-c3ccc(C)s3)cc(O)c2c1	KB	5.96
Cc1ccc2c(O)cc(-c3ccc(Br)s3)nc2n1	KB	6.30
Cc1cnc2nc(-c3sccc3C)cc(O)c2c1	KB	5.72

----------
system: A549; assay: In vitro cytotoxicity against A-549 human lung cancer cells; type: functional; details: read-out: ED50 (the source's name)

chemical-string	assayed-system	bound-type	EC50 (µM)
Cc1ccc2c(O)cc(-c3ccc(Br)s3)nc2n1	A549	>	3.1
Cc1cnc2nc(-c3csc4ccccc34)cc(O)c2c1	A549	=	0.056
Cc1ccc2c(O)cc(-c3ccco3)nc2n1	A549	>	10
Cc1cnc2nc(-c3sccc3C)cc(O)c2c1	A549	=	2.5
Cc1ccc2c(O)cc(-c3cccs3)nc2n1	A549	>	6.3
Cc1ccc2c(O)cc(-c3ccsc3)nc2n1	A549	>	6.3
Cc1cnc2nc(-c3ccc(C)s3)cc(O)c2c1	A549	=	1.3
Cc1ccc2c(O)cc(-c3cccnc3)nc2n1	A549	=	4.6
Cc1ccnc2nc(-c3csc4ccccc34)cc(O)c12	A549	=	0.2
Cc1cc(C)c2c(O)cc(-c3csc4ccccc34)nc2n1	A549	=	0.3

----------
target: Tubulin (Bos taurus, UniProt Q6B856+Q862L2+Q862F3); experiment: Inhibition of tubulin polymerization (ITP); type: functional

chemical-string	IC50
Cc1ccc2c(O)cc(-c3sccc3C)nc2n1	2.8 µM
Cc1ccc2c(O)cc(-c3ccc(C)s3)nc2n1	1.7 µM
Cc1ccc2c(O)cc(-c3ccc(Cl)s3)nc2n1	1.7 µM
Cc1ccc2c(O)cc(-c3cc(C)sc3C)nc2n1	4.8 µM
Cc1ccc2c(O)cc(-c3cc4ccccc4s3)nc2n1	> 40 µM
Cc1ccc2c(O)cc(-c3ccsc3)nc2n1	7 µM
Cc1cnc2nc(-c3sccc3C)cc(O)c2c1	3.8 µM
Cc1ccc2c(O)cc(-c3ccco3)nc2n1	14 µM
Cc1ccc2c(O)cc(-c3cccnc3)nc2n1	7.7 µM
Cc1ccc2c(O)cc(-c3sc(-c4ccccc4)cc3C)nc2n1	14 µM
Cc1cnc2nc(-c3ccc(C)s3)cc(O)c2c1	2.7 µM
Cc1ccc2c(O)cc(-c3cccs3)nc2n1	6 µM
Cc1ccc2c(O)cc(-c3sc4ccccc4c3C)nc2n1	13 µM

----------
Catalogue of compounds with associated pEC50
tested on: KB; experiment: In vitro cytotoxicity against KB human epidermoid carcinoma of the nasopharynx; format: functional; conditions: read-out: ED50 (the source's name)
pEC50: −log10 of the molar value.
property: pEC50

chemical-string	property	bound-type	value-observed
Cc1ccc2c(O)cc(-c3cccnc3)nc2n1	pEC50	=	5.52
Cc1ccnc2nc(-c3csc4ccccc34)cc(O)c12	pEC50	=	7.40
Cc1ccc2c(O)cc(-c3ccc(Br)s3)nc2n1	pEC50	=	6.10
Cc1ccc2c(O)cc(-c3ccsc3)nc2n1	pEC50	=	5.20
Cc1ccc2c(O)cc(-c3cccs3)nc2n1	pEC50	=	5.20
Cc1cnc2nc(-c3ccc(C)s3)cc(O)c2c1	pEC50	=	5.96
Cc1cnc2nc(-c3csc4ccccc34)cc(O)c2c1	pEC50	=	7.57
Cc1ccc2c(O)cc(-c3ccco3)nc2n1	pEC50	<	5.00
Cc1cnc2nc(-c3sccc3C)cc(O)c2c1	pEC50	=	5.89
Cc1cc(C)c2c(O)cc(-c3csc4ccccc34)nc2n1	pEC50	=	6.92

----------
biological target: Tubulin (Bos taurus, UniProt Q6B856+Q862L2+Q862F3); assay: Concentration inhibiting tubulin polymerization (ITP); type: functional

chemical-string	IC50
Cc1ccnc2nc(-c3csc4ccccc34)cc(O)c12	1200 nM
Cc1cc(C)c2c(O)cc(-c3csc4ccccc34)nc2n1	780 nM
Cc1cnc2nc(-c3csc4ccccc34)cc(O)c2c1	910 nM
Cc1ccc2c(O)cc(-c3ccc(Br)s3)nc2n1	1500 nM
Cc1ccc2c(O)cc(-c3csc4ccccc34)nc2n1	370 nM
